- test target: UniProt:P08253
- Sequence (P08253 whole entry): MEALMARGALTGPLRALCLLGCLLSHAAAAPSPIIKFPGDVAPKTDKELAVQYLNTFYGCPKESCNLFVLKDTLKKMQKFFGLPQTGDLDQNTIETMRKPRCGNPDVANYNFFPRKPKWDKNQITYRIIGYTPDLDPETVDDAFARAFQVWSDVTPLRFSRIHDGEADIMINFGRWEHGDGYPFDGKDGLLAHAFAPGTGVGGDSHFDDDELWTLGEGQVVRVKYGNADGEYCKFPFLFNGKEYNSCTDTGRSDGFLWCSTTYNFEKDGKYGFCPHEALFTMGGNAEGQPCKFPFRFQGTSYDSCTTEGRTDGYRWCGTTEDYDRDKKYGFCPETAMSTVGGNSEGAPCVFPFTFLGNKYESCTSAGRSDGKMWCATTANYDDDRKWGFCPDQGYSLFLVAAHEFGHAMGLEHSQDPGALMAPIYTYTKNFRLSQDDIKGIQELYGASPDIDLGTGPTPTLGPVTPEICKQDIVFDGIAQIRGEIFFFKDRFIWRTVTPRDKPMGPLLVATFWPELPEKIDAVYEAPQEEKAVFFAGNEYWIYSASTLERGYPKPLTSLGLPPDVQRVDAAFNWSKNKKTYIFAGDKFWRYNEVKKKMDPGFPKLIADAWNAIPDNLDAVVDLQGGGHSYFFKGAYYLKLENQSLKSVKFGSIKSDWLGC
- experiment notes: Dose Response validation of uHTS RPN11 inhibitor hits using a MMP-2 Fluorescence assay.
- Assay type: functional
Activity calls are given as the source filed them.
quantity: IC50

Cn1cncc1C#Cc1ccc2cc(C3(O)CCCCC3)oc(=O)c2c1 ... > 100 µM (inactive)

Exercise: Item COc1cc([N+](=O)[O-])cc(/C=N/NC(=O)c2cc(-c3ccccc3)nc3ccccc23)c1O has what recorded IC50?
Solution: 3.79 µM (active)

Exercise: Item: COc1ccccc1N1C(=N)S/C(=C\c2ccc(-c3ccccc3C(=O)O)o2)C1=O
Solution: > 100 µM (inactive)

Exercise: Follow-up item: CN(CCO)c1ccc(C=NNc2ccc([N+](=O)[O-])cc2S(=O)(=O)Nc2ccccc2C(=O)O)cc1
Solution: > 100 µM (inactive)

Exercise: Note, next up: Cc1cc(N2CCN(c3ccc([N+](=O)[O-])c4cccnc34)CC2)c2ccccc2n1
Solution: > 100 µM (inactive)

---

- test target: UniProt O75030
- Sequence (O75030 whole entry): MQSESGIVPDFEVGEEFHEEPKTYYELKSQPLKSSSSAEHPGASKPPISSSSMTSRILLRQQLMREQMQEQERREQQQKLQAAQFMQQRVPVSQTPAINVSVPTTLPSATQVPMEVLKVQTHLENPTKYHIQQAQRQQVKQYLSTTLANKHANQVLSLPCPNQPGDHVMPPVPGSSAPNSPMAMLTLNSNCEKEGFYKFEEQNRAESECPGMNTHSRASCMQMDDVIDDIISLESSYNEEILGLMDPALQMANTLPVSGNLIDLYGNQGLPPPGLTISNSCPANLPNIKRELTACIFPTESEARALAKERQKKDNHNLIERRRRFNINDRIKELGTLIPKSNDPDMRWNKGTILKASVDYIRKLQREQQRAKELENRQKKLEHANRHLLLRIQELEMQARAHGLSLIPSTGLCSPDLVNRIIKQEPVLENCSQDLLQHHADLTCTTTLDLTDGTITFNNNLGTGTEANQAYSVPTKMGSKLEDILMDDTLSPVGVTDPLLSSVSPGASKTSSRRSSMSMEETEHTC
- experiment notes: reducers of TRPM1 reporter luminescence, concentration series – cell-based, SK-MEL-5, cherry-picked, set 3, MITF inhibitor project, dose response (AID 493073);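 also: SK-MEL-5 melanoma cells with luciferase driven by the MITF target TRPM1 promoter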
- Type: functional
Calls of active or inactive are those of the source.
Each item that follows carries a reported AC50.

Please review the entries below; each comes with its answer.
O=C(C[n+]1cccc2ccccc21)c1ccc([N+](=O)[O-])cc1 ... 6.21 µM (active)
C(#Cc1ccccc1)C[N+]1(CC#Cc2cccc3ccccc23)CCCC1 ... 6.21 µM (active)
C=CCC(Nc1ccccc1)C12C=CC(O1)C(C(=O)OC)=C2C(=O)OC (stereo not given) ... 11.7 µM (active)
COc1ccc(-c2cc(-c3ccccc3)[n+](C)c(-c3ccccc3)c2)cc1.[O-][Cl+3]([O-])([O-])[O-] ... 3.2 µM (active)

// next item, AC50 requested
Exercise: So what's the measured AC50 for this one? O=C(CCl)N(c1ccccc1)C1CCCCC1
Solution: 4.51 µM (active)

---

- Test system: H4
- experiment notes: Luminescence Cell-Based Dose Response HTS to Identify Activators of 5'UTR Stem-Loop Driven Prion Protein mRNA Translation in H4 Neuroglioblastoma Cells. [Related pubchem assays: 1829 (Project Summary), 1814 (Primary HTS)]
- Format: functional
- assay context: Homo sapiens
The source made the active and inactive calls.
EC50 values by entry

// solved cases for EC50 follow
O=C(NCc1ccccn1)C(=O)Nc1ccccc1 ... 13 µM (active)
O=c1c(Cl)c(Cl)cnn1Cc1nnc(-c2ccc(Cl)cc2)o1 ... > 120 µM (not active)
O=C(Nc1cccnc1)C1CCN(S(=O)(=O)c2cccs2)CC1 ... > 120 µM (not active)
COc1ccc(Oc2nnc(C)c3ccccc23)cc1 ... 5.97 µM (active)
C/C(=N\Nc1nnc2c3ccccc3n(C)c2n1)c1ccc(C)o1 ... > 120 µM (not active)
O=C(c1cc2ccccc2oc1=O)N(c1ccc(Cl)cc1)C1C=CS(=O)(=O)C1 (centres undefined) ... > 120 µM (not active)

Exercise: # EC50 lookup, item Cc1ccc(-c2cc(-c3ccccc3[N+](=O)[O-])[nH]n2)c(O)c1
Solution: > 120 µM (not active)

Exercise: Ok, now Cc1cc(/C=C2/C(=O)NN(c3ccccc3)C2=O)c(C)n1-c1ccc(O)cc1
Solution: < 0.1 µM (active)

Exercise: Let us now turn to O=C(CSc1ccc(-c2ccccn2)nn1)c1ccccc1
Solution: 56.6 µM (active)
